Molecular target: hSSB1 (Homo sapiens, UniProt Q9BQ15 Q9BQ15:1-211)
Sequence (Q9BQ15 whole entry, one chain of several): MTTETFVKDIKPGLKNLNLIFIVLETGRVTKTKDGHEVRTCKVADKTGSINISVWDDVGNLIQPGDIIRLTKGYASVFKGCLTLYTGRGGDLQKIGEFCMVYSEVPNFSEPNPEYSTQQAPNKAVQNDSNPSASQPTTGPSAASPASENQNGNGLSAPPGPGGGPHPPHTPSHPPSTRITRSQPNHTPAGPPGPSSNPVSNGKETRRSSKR
Assay: SPR; LSA_In3E3 = 1

Binder: AGUGAGCCGGACUUGCCU (ssRNA, 2'-OMe all, PS all) [In3E3 5' truncation 18 nt]
binding signal / normalized Rmax: 0.84
--
Binder: CAGAGGCAGCAGUACGACGG (ssRNA, 2'-OMe all, PS three at each end) [LSA_ATG 2'-OMe PS ends (DKLS286198)]
binding signal / normalized Rmax: 0.17
--
Binder: CAGUGAGCCGGACUUGCC (ssRNA, 2'-OMe all, PS all) [In3E3 both-end truncation 18 nt]
binding signal / normalized Rmax: 0.91
--
Binder: GGACUUGCCU (ssRNA, 2'-OMe all, PS all) [In3E3 5' truncation 10 nt]
binding signal / normalized Rmax: 0.07
--
Binder: GUGCAUGGAAUCACGGAGUGGUGCAUGGAA (ssRNA, 2'-OMe all, PS all) [Open_A 30-mer (DKLS722361)]
binding signal / normalized Rmax: 4.08
--
Binder: CAGUGAGCCGGACUUGCCU (ssRNA, 2'-OMe all, PS all) [In3E3 5' truncation 19 nt]
binding signal / normalized Rmax: 0.92
--
Binder: AGGCAAGUCCGGCUCACUGG (ssRNA, 2'-OMe all, PS all) [RevIn3LSA (DKLS481254)]
binding signal / normalized Rmax: 0.82
